Test system: rodent lifetime carcinogenesis bioassay, tumor incidence TD50
Experiment: carcinogenic potency in animals, long-term in vivo studies, CPDB compilation (AID 1745844)
Details: rat; strain Osborne-Mendel; females; by gavage; site: liver; lesion: neoplastic nodule; dosed 104 weeks; study length 105 weeks
Measurement label: TD50

Exam item: Item under review: Clc1cc2c(cc1Cl)Oc1cc(Cl)c(Cl)cc1O2 . Reported TD50?
Marked response: 0.000154 mg/kg/day

----------
Test system: rodent lifetime carcinogenesis bioassay, tumor incidence TD50
Experiment: carcinogenic potency in animals, long-term in vivo studies, CPDB compilation (AID 1745844)
Details: rat; strain Fischer 344; males; in drinking water; site: subcutaneous tissue; lesion: fibrosarcoma + fibroma; dosed 88 weeks; study length 92 weeks
Measurement label: TD50

Exam item: Item under review: COc1cc(-c2ccc(N)c(OC)c2)ccc1N . Reported TD50?
Marked response: 13.6 mg/kg/day
